Molecular target: T1, recombinant human heparanase (Homo sapiens, UniProt Q9Y251)
T1 construct: Heparanase 8 and 50 kDa sub-units were cloned into pacGP67 as Sma 1-EcoR1 fragments; made in house; host or cells: Hi5 insect cells, baculovirus (pFastBac Dual)
T1 sequence (Q9Y251 158-543 limits assumed): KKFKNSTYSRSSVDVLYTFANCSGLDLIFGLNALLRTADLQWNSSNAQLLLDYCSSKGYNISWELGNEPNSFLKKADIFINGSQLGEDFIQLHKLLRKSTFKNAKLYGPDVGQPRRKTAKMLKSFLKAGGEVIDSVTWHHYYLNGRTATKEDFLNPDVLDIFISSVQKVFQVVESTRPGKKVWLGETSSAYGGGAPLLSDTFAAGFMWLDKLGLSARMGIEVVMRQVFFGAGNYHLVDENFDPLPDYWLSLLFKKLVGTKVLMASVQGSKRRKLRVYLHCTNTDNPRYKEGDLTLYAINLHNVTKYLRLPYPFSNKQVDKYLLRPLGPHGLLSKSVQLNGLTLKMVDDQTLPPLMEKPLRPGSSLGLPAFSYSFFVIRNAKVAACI
T1 sequence (Q9Y251 36-109 limits assumed): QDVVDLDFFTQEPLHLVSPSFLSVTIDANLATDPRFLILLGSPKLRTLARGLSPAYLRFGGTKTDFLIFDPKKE
Test: ELISA binding to directly coated recombinant human heparanase
measured.endpoint: Binding to direct coated heparanase (OD units)
Respond numerically; units are OD units and should not be typed.

Asked: # lookup: Binding to direct coated heparanase of 7B9.1: human anti-heparanase monoclonal antibody, G4λ; VH SEQ ID NO 22, VL SEQ ID NO 24 (antibody, listed as Homo Sapiens, V domains shown) VH: QVQLVESGGGVVQPGRSLRLSCAASGFTFSSYGMHWVRQAPGKGLEWVAVIWYDGSNKYYADSVKGRFTISRDNSKNTLYLQMNSLRAEDTAVYYCAREGAPYSSSDAFDIWGQGTMVTVSS VL: QSVLTQPPSVSGAPGQRVTISCTGSSSNIGANYDVHWYQQLPGTAPKLLIYGDNNRPSGVPDRFSGSKSGTSASLAITGLQAEDEADYYCQSYDSSLSGSVFGGGTKLTVL
Given back: 3.78
